tgt: UniProt:H9BQY4
protocol_conditions: read-out: hidden head, 8th column; covalent
measured_quantity: IC50 (µM)
Hi! Could you send only the number? It should be in µM, unit omitted.

Under UniProt:H9BQY4: IC50 value of O=C(CCl)N1N=C(c2ccccc2)CC1c1ccnc2[nH]ccc12 (stereo not shown) [NJH-1-159] ?
9.3

---

tgt: HCoV-229E Mpro (Human coronavirus 229E)
Sequence (P0C6X1 2966-3267 limits assumed): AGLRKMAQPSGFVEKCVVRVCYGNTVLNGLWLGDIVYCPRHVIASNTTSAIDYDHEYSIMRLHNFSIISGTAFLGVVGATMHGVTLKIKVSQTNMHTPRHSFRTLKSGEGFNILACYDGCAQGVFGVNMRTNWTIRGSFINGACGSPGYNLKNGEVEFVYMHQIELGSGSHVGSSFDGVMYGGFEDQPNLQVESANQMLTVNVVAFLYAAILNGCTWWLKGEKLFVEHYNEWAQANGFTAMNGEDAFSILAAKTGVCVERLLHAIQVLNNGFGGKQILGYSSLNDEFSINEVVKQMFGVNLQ
experimental_details: biochemical
protocol_conditions: read-out: PM-2-27A (trans); covalent
measured_quantity: IC50 (nM)
Field format: number, assumed nM, no unit text.

Can you look up the measured IC50 of O=C(CCl)N1N=C(c2ccccc2)[C@H](c2ccccc2)[C@H]1c1cccc2nccnc12 (relative stereo) [PM-2-27A (trans)] for me?
46

---

tgt: HCoV-HKU1 Mpro (Human coronavirus HKU1 (isolate N1), UniProt P0C6X2)
Sequence (P0C6X2 3335-3637 limits assumed): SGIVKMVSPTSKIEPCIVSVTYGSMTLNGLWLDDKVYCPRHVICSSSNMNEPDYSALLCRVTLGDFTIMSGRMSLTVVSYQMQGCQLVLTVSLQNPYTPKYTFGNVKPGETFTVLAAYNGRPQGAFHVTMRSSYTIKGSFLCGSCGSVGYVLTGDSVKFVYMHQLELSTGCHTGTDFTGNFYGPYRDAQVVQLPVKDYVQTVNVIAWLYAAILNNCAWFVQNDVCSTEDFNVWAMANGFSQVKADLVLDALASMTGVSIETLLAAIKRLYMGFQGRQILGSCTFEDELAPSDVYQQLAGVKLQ
experimental_details: biochemical
protocol_conditions: read-out: hidden head, 8th column; covalent
measured_quantity: IC50 (nM)
Value expressed in nM; do not type the unit.

Could you share what IC50 was measured for O=C(CCl)N1N=C(c2ccccc2)CC1c1ccnc2[nH]ccc12 (stereo not shown) [NJH-1-159] , tested on HCoV-HKU1 Mpro (Human coronavirus HKU1 (isolate N1), UniProt P0C6X2)?
8.9

---

tgt: MERS-CoV Mpro (Betacoronavirus England 1, UniProt K9N7C7)
Sequence (K9N7C7 3248-3553 limits assumed): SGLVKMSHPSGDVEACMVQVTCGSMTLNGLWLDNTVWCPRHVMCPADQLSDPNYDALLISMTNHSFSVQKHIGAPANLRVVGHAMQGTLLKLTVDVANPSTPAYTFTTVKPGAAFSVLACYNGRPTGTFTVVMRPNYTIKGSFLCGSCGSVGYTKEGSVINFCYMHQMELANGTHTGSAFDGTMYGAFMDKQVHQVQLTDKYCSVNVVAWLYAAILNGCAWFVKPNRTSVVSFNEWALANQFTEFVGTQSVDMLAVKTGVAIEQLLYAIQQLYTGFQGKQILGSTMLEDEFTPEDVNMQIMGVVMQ
experimental_details: biochemical
measured_quantity: pIC50
Conceptually, pIC50 converts a concentration in mol/L into minus its log10.

compound: O=C(CCl)N1N=C(c2ccccc2)[C@H](c2ccccc2)[C@@H]1c1ccc2nccnc2c1 (relative stereo) [HW-1-187B, cis-HW-1-187B]
measured_quantity: pIC50
recorded_result: 5.89

// moving on: another record for pIC50
Give its pIC50 value. Item: O=C(CCl)N1N=C(c2ccccc2)[C@H](c2ccccc2)[C@@H]1c1ccccc1 (relative stereo) [PM-2-020B, cis-PM-02-020B]
5.55

---

tgt: MERS-CoV Mpro (Betacoronavirus England 1, UniProt K9N7C7)
experimental_details: biochemical
protocol_conditions: read-out: HW-1-87A (trans); covalent
measured_quantity: pIC50
pIC50 field: float, defined as -log10 of concentration (mol/L).

// pIC50 lookup, key: O=C(CCl)N1N=C(c2ccccc2)[C@H](c2ccccc2)[C@H]1c1ccc2nccnc2c1 (relative stereo) [HW-1-87A (trans)]
6.47

---

tgt: PorCoV-HKU15 Mpro (Porcine coronavirus HKU15, UniProt H9BQY4)
Sequence (H9BQY4 2509-2811 limits assumed): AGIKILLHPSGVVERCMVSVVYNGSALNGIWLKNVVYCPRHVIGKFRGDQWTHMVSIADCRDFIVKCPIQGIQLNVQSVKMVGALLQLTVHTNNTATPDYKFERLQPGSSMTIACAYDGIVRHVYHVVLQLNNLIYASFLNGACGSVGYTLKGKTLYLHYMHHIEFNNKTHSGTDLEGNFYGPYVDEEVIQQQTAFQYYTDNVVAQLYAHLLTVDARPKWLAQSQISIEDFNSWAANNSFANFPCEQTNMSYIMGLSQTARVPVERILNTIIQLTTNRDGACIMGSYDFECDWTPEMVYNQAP
protocol_conditions: read-out: PM-2-20B (cis); covalent
measured_quantity: pIC50
Scale for pIC50: -log10 of concentration given in mol/L; no unit attached.

Please look up its pIC50: O=C(CCl)N1N=C(c2ccccc2)[C@H](c2ccccc2)[C@@H]1c1ccccc1 (relative stereo) [PM-2-020B, cis-PM-02-020B]
5.96

---

tgt: MERS-CoV Mpro (Betacoronavirus England 1, UniProt K9N7C7)
experimental_details: biochemical
protocol_conditions: read-out: PM-2-20A (trans); covalent
measured_quantity: pIC50
Kindly note that pIC50 refers to -log10 of the concentration in mol/L and answer with the value alone.

Returns the measured pIC50 for the input molecule. Input: O=C(CCl)N1N=C(c2ccccc2)[C@H](c2ccccc2)[C@H]1c1ccccc1 (relative stereo) [PM-2-20A (trans)]
5.43

---

Reported pIC50 is given for each of the following molecules.
tgt: MERS-CoV Mpro (Betacoronavirus England 1)
experimental_details: biochemical
On this scale, pIC50 is minus log10 of a concentration expressed in M (mol/L).

Observe how each entry below is paired with its result.
molecule: O=C(CCl)N1N=C(c2cc(F)cc(Cl)c2)CC1c1cccc2nccnc12 (stereo not drawn) [LEB-3-004]
pIC50: 7.00
//
molecule: O=C(CCl)N1N=C(c2cccc(Cl)c2)CC1c1cccc2nccnc12 (stereo not drawn) [LEB-2-172]
pIC50: 7.42

Value lookup for pIC50; key = O=C(CCl)N1N=C(c2ccccc2)CC1c1cccnc1 (stereo not drawn) [NJH-1-147]
5.14

Every entry's value here was drawn from paper doi:10.1101/2022.03.05.483025v1.
